Some compounds, each annotated with its measured cytotoxicity at 10 µM.
methodSummary: Toxicity liver stage against HepG2, at 10uM
Type: cell-based
Set-up: test concentration 10 uM, cell line HepG2-A16-CD81EGFP
condition: human, HepG2-A16-CD81EGFP cells; read-out: INHIBITION
Write it as a number; the unit % goes unstated.

| compound | unitsText | cytotoxicity at 10 µM |
| --- | --- | --- |
| Cc1ccc(CN2CC[C@H]3OCC[C@@H](C(=O)N4CCCCO4)[C@@H]3C2)o1 | % | 3.54 |
| Cc1ccc(Oc2ncccc2CNC2CCOCC2)cn1 | % | -3.73 |
| CC(=O)NCc1ccc(C(=O)NC2CCc3nc(C)cn3C2)o1 (stereo unspecified) | % | -3.81 |
| C[C@@H]1CN(Cc2cccnc2)C[C@]12CCN(CCN1CCCC1)C2=O | % | -6.04 |
| O=C(c1cccnc1N1CCN(Cc2ccoc2)CC1)N1CCCCC1 | % | -3.68 |

State, in one line, measured cytotoxicity at 10 µM of CS(=O)(=O)N1CCC(Oc2ccc(C(=O)NC3CCOC3)cc2Cl)CC1 (stereo unspecified) -4.88

State, in one line, measured cytotoxicity at 10 µM of COCC1CC2(CCN(Cc3cccnc3)CC2)CN1c1ncccn1 (stereo unspecified) 3.71

State, in one line, measured cytotoxicity at 10 µM of `CN(CCCc1cnn(C)c1)C(=O)Nc1cccc2[nH]ncc12` -1.89
